# method: Area under curve determined after intravenous administration at a dose of 3 mg/kg in cynomolgus monkey
# Format: ADME, organism-based, Macaca fascicularis
# Design: dose 3 mg/kg, route intravenous
# particulars: in vivo
measuredQuantity: AUC (uM hr l-1)

// known answers, use as guide
[
  {
    "molecule": "CC1(C)NC(=O)N(CCC(COc2ccc(-c3ccc(C#N)cc3)cc2)N(O)C=O)C1=O (stereo unspecified)",
    "AUC (uM hr l-1)": 47.5
  },
  {
    "molecule": "CCN1C(=O)N(CC(COc2ccc(-c3ccc(C#N)cc3)cc2)N(O)C=O)C(=O)C1(C)C (stereo unspecified)",
    "AUC (uM hr l-1)": 12.3
  }
]

P: CN1C(=O)N(CC(COc2ccc(-c3ccc(C#N)cc3)cc2)N(O)C=O)C(=O)C1(C)C (stereo unspecified)
Q: CN1C(=O)N(CCC(COc2ccc(-c3ccc(C#N)cc3)cc2)N(O)C=O)C(=O)C1(C)C (stereo unspecified)
R: N#Cc1ccc(-c2ccc(OCC(CN3C(=O)CNC3=O)N(O)C=O)cc2)cc1 (stereo unspecified)
S: CC1(C)NC(=O)N(CC(COc2ccc(-c3ccc(C#N)cc3)cc2)N(O)C=O)C1=O (stereo unspecified)
Sequence the entries by AUC, beginning with the highest number. Kindly provide the labels arranged according to the requested ordering. R, S, P, Q
